test: in vivo; conditions: male, ICR, mouse, in vivo, im
No end group written: not given here.
ENDPOINT NAME: MTD at 24 h
Quote the value and follow it with the unit of measurement.

Form field MTD at 24 h, entry DNWWPKPPHQGPRPPRPRPKP-NH2 [Az, azemiopsin] : 0.7 mg/kg

* * *

target: mouse muscle type α1β1εδ nAChR (Mus musculus, UniProt P02716+P04756+P20782); construct: expressed in transfected cells; host or cells: mouse neuroblastoma Neuro2a, transient transfection (pRBG4 plasmids), co-expressed with Case12 calcium sensor; assay: Calcium imaging of ACh-evoked [Ca2+]i rise in Neuro2a cells expressing muscle nAChR (Case12 sensor); assay type: cell-based; conditions: 30 μM ACh (EC100); transfected Neuro2a cells, Case12 sensor; 15 min preincubation; mean ± SEM, 4 independent experiments; read-out: IC50, inhibition of ACh-evoked calcium response of muscle nAChR
Sequence (P09690 24-501): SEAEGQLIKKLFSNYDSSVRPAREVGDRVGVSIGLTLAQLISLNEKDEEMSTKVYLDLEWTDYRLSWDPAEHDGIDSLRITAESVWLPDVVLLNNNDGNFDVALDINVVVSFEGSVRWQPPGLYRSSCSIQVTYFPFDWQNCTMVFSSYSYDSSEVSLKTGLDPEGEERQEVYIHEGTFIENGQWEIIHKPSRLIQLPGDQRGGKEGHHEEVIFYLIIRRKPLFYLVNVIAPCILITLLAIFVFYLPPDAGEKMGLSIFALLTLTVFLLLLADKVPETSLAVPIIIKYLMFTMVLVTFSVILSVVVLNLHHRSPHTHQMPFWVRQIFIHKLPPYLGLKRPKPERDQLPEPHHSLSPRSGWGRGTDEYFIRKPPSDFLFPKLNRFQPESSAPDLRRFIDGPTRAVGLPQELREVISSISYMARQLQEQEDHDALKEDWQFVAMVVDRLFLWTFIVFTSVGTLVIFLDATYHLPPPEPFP
Sequence (P04756 21-457): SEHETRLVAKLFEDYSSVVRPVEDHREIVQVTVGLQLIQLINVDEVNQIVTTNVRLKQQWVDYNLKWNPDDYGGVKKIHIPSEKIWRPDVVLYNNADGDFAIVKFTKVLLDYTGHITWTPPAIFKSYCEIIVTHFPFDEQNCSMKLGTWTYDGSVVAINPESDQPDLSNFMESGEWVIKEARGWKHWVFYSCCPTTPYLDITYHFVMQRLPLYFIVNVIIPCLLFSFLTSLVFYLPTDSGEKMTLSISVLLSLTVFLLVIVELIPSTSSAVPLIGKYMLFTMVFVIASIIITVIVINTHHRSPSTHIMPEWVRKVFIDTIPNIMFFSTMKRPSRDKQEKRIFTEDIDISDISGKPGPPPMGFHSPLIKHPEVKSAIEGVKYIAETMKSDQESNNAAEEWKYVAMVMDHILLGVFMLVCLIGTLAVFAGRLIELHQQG
Sequence (P02716 25-520): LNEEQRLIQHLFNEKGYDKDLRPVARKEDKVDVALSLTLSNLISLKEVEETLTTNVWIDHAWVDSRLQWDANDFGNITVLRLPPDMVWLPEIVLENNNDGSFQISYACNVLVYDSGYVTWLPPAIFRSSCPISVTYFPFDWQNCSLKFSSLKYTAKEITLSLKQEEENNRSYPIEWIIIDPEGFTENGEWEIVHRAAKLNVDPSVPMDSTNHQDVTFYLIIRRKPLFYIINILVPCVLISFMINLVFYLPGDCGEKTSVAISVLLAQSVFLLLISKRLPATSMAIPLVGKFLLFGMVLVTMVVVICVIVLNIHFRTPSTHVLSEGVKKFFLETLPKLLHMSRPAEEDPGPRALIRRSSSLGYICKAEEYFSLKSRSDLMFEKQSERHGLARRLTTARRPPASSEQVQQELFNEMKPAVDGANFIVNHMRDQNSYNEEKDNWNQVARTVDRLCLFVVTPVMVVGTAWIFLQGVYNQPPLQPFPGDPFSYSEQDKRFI
Sequence (P20782 21-493): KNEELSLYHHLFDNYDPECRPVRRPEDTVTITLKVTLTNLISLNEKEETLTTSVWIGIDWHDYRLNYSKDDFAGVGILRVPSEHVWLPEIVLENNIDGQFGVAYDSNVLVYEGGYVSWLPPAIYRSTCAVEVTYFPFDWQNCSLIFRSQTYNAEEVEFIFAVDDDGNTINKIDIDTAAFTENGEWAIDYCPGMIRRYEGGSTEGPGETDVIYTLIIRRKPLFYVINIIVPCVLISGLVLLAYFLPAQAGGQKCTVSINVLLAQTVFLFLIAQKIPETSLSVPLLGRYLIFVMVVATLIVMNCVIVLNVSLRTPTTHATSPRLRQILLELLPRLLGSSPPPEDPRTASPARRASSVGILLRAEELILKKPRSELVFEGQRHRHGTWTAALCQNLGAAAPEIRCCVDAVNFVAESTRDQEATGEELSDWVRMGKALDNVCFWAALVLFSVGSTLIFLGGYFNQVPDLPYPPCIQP
No end group written: not given here.
ENDPOINT NAME: IC50 (nM)
Field: numeric (nM). Do not append units.

Form field IC50, entry DNWWPKPPHQGPRPPRPRPKP-NH2 [Az, azemiopsin] : 19
